target: Cyclin-dependent kinase 2/G1/S-specific cyclin-E1 (Homo sapiens, UniProt P24941+P24864); assay: TR-FRET Assay
readout.type: IC50 (nM)
Record the value in nM, omitting the unit from your answer.

Noted for COCc1cc(C(=O)Nc2cc([C@H]3CC[C@@H](OC(=O)N4CCC5(CCC5)C4)C3)[nH]n2)n(C)n1 [US20250195475, Example 6] : its IC50 reads 0.8
